These measurements were taken from patent US7081460B2.

Measured pIC50, listed per entry for reference.
# EXPERIMENTAL SYSTEM: Human αvβ3 (Homo sapiens, UniProt P05106+P06756)
# Construct: purchased Chemicon International Inc., Temecula, Calif
# Sequence (P06756 31-889 limits assumed): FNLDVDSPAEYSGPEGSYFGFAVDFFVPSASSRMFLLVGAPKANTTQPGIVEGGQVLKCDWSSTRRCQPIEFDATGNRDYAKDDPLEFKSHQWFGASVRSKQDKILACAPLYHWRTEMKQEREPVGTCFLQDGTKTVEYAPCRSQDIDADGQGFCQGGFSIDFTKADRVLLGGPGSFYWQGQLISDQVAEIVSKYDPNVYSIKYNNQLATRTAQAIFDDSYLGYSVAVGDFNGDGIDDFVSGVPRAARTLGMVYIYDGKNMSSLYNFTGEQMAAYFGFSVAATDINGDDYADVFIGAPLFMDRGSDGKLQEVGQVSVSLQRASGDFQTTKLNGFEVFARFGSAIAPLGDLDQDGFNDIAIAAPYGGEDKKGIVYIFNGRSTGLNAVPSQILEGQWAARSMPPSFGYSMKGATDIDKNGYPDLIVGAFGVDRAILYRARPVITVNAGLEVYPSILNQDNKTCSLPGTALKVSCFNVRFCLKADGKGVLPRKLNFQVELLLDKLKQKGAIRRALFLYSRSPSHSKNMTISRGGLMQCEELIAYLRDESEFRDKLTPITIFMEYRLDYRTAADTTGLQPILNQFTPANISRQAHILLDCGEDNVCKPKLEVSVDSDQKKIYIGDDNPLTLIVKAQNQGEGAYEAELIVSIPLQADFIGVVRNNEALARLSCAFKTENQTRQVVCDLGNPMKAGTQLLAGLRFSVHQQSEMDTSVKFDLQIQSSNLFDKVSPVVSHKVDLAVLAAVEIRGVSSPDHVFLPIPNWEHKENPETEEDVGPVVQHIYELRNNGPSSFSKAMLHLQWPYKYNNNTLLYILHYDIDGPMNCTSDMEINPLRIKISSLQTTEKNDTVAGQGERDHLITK
# Sequence (P06756 891-1048 partner limits assumed): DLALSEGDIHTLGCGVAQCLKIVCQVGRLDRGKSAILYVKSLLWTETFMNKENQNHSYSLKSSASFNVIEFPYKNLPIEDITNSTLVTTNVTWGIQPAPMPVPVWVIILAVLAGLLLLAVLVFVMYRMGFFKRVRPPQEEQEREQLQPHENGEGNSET
# Sequence (P05106 27-788): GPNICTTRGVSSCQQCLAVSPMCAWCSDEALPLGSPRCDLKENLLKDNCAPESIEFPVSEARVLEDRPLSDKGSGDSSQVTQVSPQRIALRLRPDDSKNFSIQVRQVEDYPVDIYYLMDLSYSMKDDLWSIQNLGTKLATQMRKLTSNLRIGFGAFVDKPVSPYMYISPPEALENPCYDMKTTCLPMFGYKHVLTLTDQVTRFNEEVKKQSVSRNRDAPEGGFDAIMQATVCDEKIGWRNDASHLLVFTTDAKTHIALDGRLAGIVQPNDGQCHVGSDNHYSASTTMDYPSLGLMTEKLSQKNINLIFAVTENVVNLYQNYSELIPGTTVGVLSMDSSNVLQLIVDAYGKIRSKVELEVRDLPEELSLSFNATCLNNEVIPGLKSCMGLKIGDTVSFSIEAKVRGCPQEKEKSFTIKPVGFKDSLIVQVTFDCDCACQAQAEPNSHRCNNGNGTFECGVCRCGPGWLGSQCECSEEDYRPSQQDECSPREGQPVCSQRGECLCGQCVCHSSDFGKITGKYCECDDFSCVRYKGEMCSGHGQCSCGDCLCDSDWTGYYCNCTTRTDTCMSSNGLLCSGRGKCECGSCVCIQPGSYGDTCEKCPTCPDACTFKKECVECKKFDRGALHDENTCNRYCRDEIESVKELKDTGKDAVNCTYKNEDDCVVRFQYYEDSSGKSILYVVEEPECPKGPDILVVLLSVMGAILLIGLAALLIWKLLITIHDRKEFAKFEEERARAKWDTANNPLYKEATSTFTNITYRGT
# PROCEDURE DETAILS: In vitro solid phase purified αvβ3 binding assay (vitronectin/αvβ3)
# REPORTED CONDITIONS: isolated human αvβ3, 5 nM vitronectin; read-out: αvβ3 Binding IC50
pIC50: −log10 of the molar value.

Below: 2 compounds and their reported pIC50.
{"SMILES TEXT": "NC/C=C/c1ccc2nc(C[C@H](NC(=O)OCc3ccccc3)C(=O)O)[nH]c(=O)c2c1", "EXPERIMENTAL SYSTEM": "Human αvβ3 (Homo sapiens, UniProt P05106+P06756)", "pIC50": "< 5.30"}
{"SMILES TEXT": "Cc1coc(NC/C=C/c2ccc3nc(C[C@H](NS(=O)(=O)c4c(C)c(C)c(C)c(C)c4C)C(=O)O)[nH]c(=O)c3c2)n1", "EXPERIMENTAL SYSTEM": "Human αvβ3 (Homo sapiens, UniProt P05106+P06756)", "pIC50": "< 5.30"}

Next, consider the following compound.
I would be grateful if you could share the reported pIC50 for C/C(=C\NC(=O)NC1CCCCC1)c1ccc2nc(C[C@H](NS(=O)(=O)c3c(C)c(C)c(C)c(C)c3C)C(=O)O)[nH]c(=O)c2c1 . < 6.30
